Assign IC50 to each entry below.
biological target: LK35.2-hPD-L1 cells / PE-labeled PD-1-Ig (Homo sapiens, UniProt Q9NZQ7); construct: expressed in transfected cells; host or cells: LK35.2 mouse B cell line; assay: LK35.2-hPD-L1 cell binding high-content screening assay; assay type: cell-based; settings: cluster symbol; cell line of CBA not given (LK35.2-hPD-L1 or 293T-hPD-L1); read-out: CBA IC50 cluster
Sequence (Q9NZQ7 19-290): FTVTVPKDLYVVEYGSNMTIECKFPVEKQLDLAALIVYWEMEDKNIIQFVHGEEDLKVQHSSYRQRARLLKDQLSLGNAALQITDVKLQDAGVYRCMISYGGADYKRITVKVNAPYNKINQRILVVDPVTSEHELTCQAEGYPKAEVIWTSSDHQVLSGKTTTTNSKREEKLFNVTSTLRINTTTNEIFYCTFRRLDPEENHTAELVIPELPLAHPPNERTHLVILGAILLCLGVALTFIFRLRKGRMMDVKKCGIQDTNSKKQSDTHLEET
Positions of bridges follow the written chain, without caps; N, C: chain ends. Non-standard residues stand in square brackets, D forms with d. Residues, ends and D or L forms follow the SMILES beside them. Pro(4R-NH2) = N[C@H]1CN[C@H](C(=O)O)C1; NMeF = CN[C@@H](Cc1ccccc1)C(=O)O; NMeNle = CCCC[C@H](NC)C(=O)O; NMeA = CN[C@@H](C)C(=O)O; Sar = CNCC(=O)O

CCCC[C@H]1C(=O)N2CCC[C@@H]2C(=O)N2C[C@H](N)C[C@H]2C(=O)N[C@@H](C(C)C)C(=O)N(C)[C@@H](Cc2ccccc2)C(=O)N[C@@H](Cc2ccc(O)cc2)C(=O)N(C)CC(=O)N[C@@H](Cc2c[nH]c3ccccc23)C(=O)N[C@@H](Cc2ccc(O)cc2)C(=O)N[C@@H](CC(C)C)C(=O)N[C@H](C(=O)NCC(N)=O)CSCC(=O)N[C@@H](Cc2ccccc2)C(=O)N(C)[C@@H](Cc2ccccc2)C(=O)N1C [Example 3175] ({CH2CO}-F[NMeF][NMeNle][dP][Pro(4R-NH2)]V[NMeF]Y[Sar]WYLCG-NH2; thioether N-13)
4.78 to 72.9 nM

Query string: State the recorded IC50 for this entry: CCCC[C@H]1C(=O)N(C)[C@@H](CCCC)C(=O)N[C@@H](CCCNC(=N)N)C(=O)N[C@H](C(=O)NCC(N)=O)CSCC(=O)N[C@@H](Cc2ccccc2)C(=O)N(C)[C@@H](C)C(=O)N[C@@H](CC(N)=O)C(=O)N2CCC[C@H]2C(=O)N[C@@H](Cc2cnc[nH]2)C(=O)N[C@@H](CC(C)C)C(=O)N(C)CC(=O)N[C@@H](Cc2c[nH]c3ccccc23)C(=O)N[C@H](CO)C(=O)N[C@@H](Cc2c[nH]c3ccccc23)C(=O)N1C [Example 1065] ({CH2CO}-F[NMeA]NPHL[Sar]W[dS]W[NMeNle][NMeNle]RCG-NH2; thioether N-14)
Result string: > 74.3 nM

====

Assignment: determine reported pIC50 for the given compounds.
biological target: LK35.2-hPD-L1 cells / PE-labeled PD-1-Ig (Homo sapiens); construct: expressed in transfected cells; host or cells: LK35.2 mouse B cell line; test: LK35.2-hPD-L1 cell binding high-content screening assay; type: cell-based; details: cluster symbol; cell line of CBA not given (LK35.2-hPD-L1 or 293T-hPD-L1); read-out: CBA IC50 cluster
pIC50: −log10 of the molar value. Positions of bridges follow the written chain, without caps; N, C: chain ends. Non-standard residues stand in square brackets, D forms with d. Residues, ends and D or L forms follow the SMILES beside them. ξ: configuration not given here. Bta = N[C@@H](Cc1csc2ccccc12)C(=O)O; dNMeNle = CCCC[C@@H](NC)C(=O)O; NMeNle = CCCC[C@H](NC)C(=O)O; NMeA = CN[C@@H](C)C(=O)O; dDap = NC[C@@H](N)C(=O)O; Dab = NCC[C@H](N)C(=O)O; Dap = NC[C@H](N)C(=O)O; ξP = O=C(O)C1CCCN1

CCCC[C@H]1C(=O)N(C)[C@@H](CCCC)C(=O)N[C@@H](CCCNC(=N)N)C(=O)N[C@H](C(=O)NCC(N)=O)CSCC(=O)N[C@@H](Cc2ccc(O)cc2)C(=O)N(C)[C@@H](C)C(=O)N[C@@H](CC(N)=O)C(=O)N2CCC[C@H]2C(=O)N[C@@H](CN)C(=O)N[C@@H](CC(C)C)C(=O)N2CCC[C@H]2C(=O)N[C@@H](Cc2c[nH]c3ccccc23)C(=O)N[C@@H](CO)C(=O)N[C@@H](Cc2csc3ccccc23)C(=O)N1C [Example 1084] ({CH2CO}-Y[NMeA]NP[Dap]LPWS[Bta][NMeNle][NMeNle]RCG-NH2; thioether N-14)
8.33 to 9.80

# context switch: different compound, same pIC50
Query string: Can you share its pIC50? I mean this compound: CCCC[C@@H]1C(=O)N(C)[C@H](CCCC)C(=O)N[C@@H](C)C(=O)N[C@@H](C(=O)NCC(N)=O)CSCC(=O)N[C@@H](Cc2ccc(O)cc2)C(=O)N2CCCC2C(=O)N[C@H](CC(=O)O)C(=O)N2CCC[C@H]2C(=O)N[C@H](CN)C(=O)N[C@@H](CC(=O)O)C(=O)N2CCCC2C(=O)N[C@H](Cc2c[nH]c3ccccc23)C(=O)N[C@@H](CCN)C(=O)N[C@@H](Cc2c[nH]c3ccccc23)C(=O)N1C (some centres unmarked) [Example 1210] ({CH2CO}-Y[ξP][dD]P[dDap]D[ξP][dW][Dab]W[dNMeNle][dNMeNle]A[dC]G-NH2; thioether N-14)
Result string: < 7.13

Each recorded value in this set is attributed to patent US9850283B2.
